Source: the supplement of paper PMC10567573

B1: RAD51 (parent)
chain: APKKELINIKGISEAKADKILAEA

- Variants of: B1
- assay-protocol: protein stability index of a GFP-peptide fusion (GPS, HEK-293T) (PSI 1-6); higher = more stable;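 also: lentivirally expressed fusions sorted by FACS into six bins by GFP to DsRed ratio, PSI derived from sequencing read proportions per bin multiplied by bin number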
- setup-conditions: c terminus: a fixed tail appended
Task for the reader: assign each of the following variants its reported protein stability index.
The answer should be written as a number, with no unit following it.

Can you share its protein stability index? I mean this variant: L21Y 4.58

Can you share its protein stability index? I mean this variant: K3I 4.77

Can you share its protein stability index? I mean this variant: A1G 4.71

Can you share its protein stability index? I mean this variant: P2Y 4.18

Can you share its protein stability index? I mean this variant: I7N 4.7

Can you share its protein stability index? I mean this variant: K19L 3.89

Can you share its protein stability index? I mean this variant: L6N 4.94

Can you share its protein stability index? I mean this variant: K19P 4.48

Can you share its protein stability index? I mean this variant: I20T 5.16

Can you share its protein stability index? I mean this variant: K3A 4.92

Can you share its protein stability index? I mean this variant: K3Y 3.85

Can you share its protein stability index? I mean this variant: P2D 5.18

Can you share its protein stability index? I mean this variant: A17L 4.53

Can you share its protein stability index? I mean this variant: K3L 3.3

Can you share its protein stability index? I mean this variant: K19T 4.83

Can you share its protein stability index? I mean this variant: K4S 4.96

Can you share its protein stability index? I mean this variant: L6I 4.4

Can you share its protein stability index? I mean this variant: I20V 4.97

Can you share its protein stability index? I mean this variant: I7G 4.8

Can you share its protein stability index? I mean this variant: S13M 4.56

Can you share its protein stability index? I mean this variant: A17I 4.15

Can you share its protein stability index? I mean this variant: A24N 4.96
